Listed next: entries and their corresponding TGI.
Tested on: OVCAR-4 ovarian
method notes: NCI tumour cell line growth inhibition, 48 h
readout kind: TGI

* COc1cc2ccc1NC(=O)N1CCN(CC1)C(=O)Nc1ccc(cc1OC)-c1ccc(c(OC)c1)NC(=O)N1CCN(CC1)C(=O)Nc1ccc-2cc1OC | > 100 µM
* CCOc1ccc2nc(NC(=O)C(=O)C(C#N)CC(C)(C)C=O)sc2c1 (stereo not drawn) | > 100 µM
* O=[N+]([O-])c1ccc(-c2noc(-c3ccccc3)c2C2=NCCN2)cc1 | > 100 µM

Data credit: PubChem BioAssay (NCI)
